experiment: Pharmacokinetics and oral bioavailability of D8.3.p1 and D10.1 in Balb/C female mice (PO, SQ, IV); format: in vivo; conditions: female, Balb/C, mouse, plasma, sc; D10.1 SQ 12.2 mg/kg, mean
Property name: AUC(0-inf) (µM·h)
Answer format: numeric, µM·h implied, no suffix.

Request: Provide measured AUC(0-inf) value, entry: `CC[C@H](C)[C@@H]1NC(=O)[C@@H](CC(C)C)NC(=O)[C@H](CC(C)C)N(C)C(=O)[C@H](Cc2ccccc2)NC(=O)CN(C)C(=O)[C@@H]2CCCN2C(=O)[C@H](C(C)C)NC(=O)[C@H](Cc2ccccc2)N(C)C(=O)[C@H]2CCCN2C(=O)[C@H](CC(C)C)NC1=O`
Result: 47.8

src = paper PMC9490236
